Experiment: Tmax in C57BL/6 mouse at 1 mg/kg, iv or 3 mg/kg, po
Format: ADME, organism-based
Details: in vivo
PARAMETER_MEASURED: Tmax (min)
// return numeric value only (unit: min, not printed)

Challenge: Return the recorded Tmax value; entry: `C=CC(=O)N(C)CCOc1c(N)ncnc1-c1cc(F)cc(NC(=O)c2ccc(C3CC3)cc2F)c1C`
Response given: 18

----------
Experiment: Intrinsic clearance in mouse liver microsomes
Assay type: ADME, Microsome
Conditions: read-out: CLH
PARAMETER_MEASURED: microsomal CLint (µL/min/mg)
Answer with a number only, understood to be in µL/min/mg.

Challenge: Quote microsomal CLint reported for `C=CC(=O)N(C)CCOc1c(N)ncnc1-c1cc(F)cc(NC(=O)c2ccc(C3CC3)cc2F)c1C` please.
Response given: 325

----------
Assay: Oral bioavailability in OFA-1 rat at 10 mg/kg
Format: ADME, organism-based
Conditions: in vivo
PARAMETER_MEASURED: bioavailability
Report as: number unit

C=CC(=O)N1CC(Oc2c(N)ncnc2-c2cc(F)cc(NC(=O)c3ccc(C4CC4)cc3F)c2C)C1    51%

Now, please, on to the next compound.
Challenge: Answer with the recorded bioavailability of `C=CC(=O)N1CC(Oc2c(N)ncnc2-c2cc(F)cc(NC(=O)c3ccc(C4CC4)cc3)c2C)C1` only.
Response given: 5%

----------
Assay: Oral bioavailability in Lewis rat at 3 mg/kg
Type: ADME, organism-based
Conditions: in vivo
PARAMETER_MEASURED: bioavailability (%)
# number only, unit % dropped from output

Challenge: Please give the documented bioavailability of `C=CC(=O)N(C)CCOc1c(N)ncnc1-c1cc(F)cc(NC(=O)c2ccc(C3CC3)cc2F)c1C`
Response given: 29

----------
Test: Intrinsic clearance in dog liver microsomes
Format: ADME, Canis lupus familiaris, Microsome
Conditions: read-out: CLH
PARAMETER_MEASURED: microsomal CLint (µL/min/mg)
I only need the number, in µL/min/mg, no unit after it.

Challenge: Quote microsomal CLint reported for `C=CC(=O)N(C)CCOc1c(N)ncnc1-c1cc(F)cc(NC(=O)c2ccc(C3CC3)cc2F)c1C` please.
Response given: 146

----------
Test: Tmax in Beagle dog at 1 mg/kg, iv or 3 mg/kg, po
Assay type: ADME, organism-based, Canis lupus familiaris
Details: in vivo
PARAMETER_MEASURED: Tmax (min)
Your answer is read as min, so omit the unit and give the number.

Challenge: Please list Tmax recorded for the compound `C=CC(=O)N(C)CCOc1c(N)ncnc1-c1cc(F)cc(NC(=O)c2ccc(C3CC3)cc2F)c1C`
Response given: 48

----------
Test: Half life in Lewis rat at 1 mg/kg, iv or 3 mg/kg, po
Format: ADME, organism-based
Conditions: in vivo
PARAMETER_MEASURED: half-life (min)
Write the answer as a number in min, unit excluded.

Challenge: Note half-life for the molecule shown: `C=CC(=O)N(C)CCOc1c(N)ncnc1-c1cc(F)cc(NC(=O)c2ccc(C3CC3)cc2F)c1C`
Response given: 30

----------
Assay: Drug level in OFA-1 rat blood at 10 mg/kg, po measured after 5 hrs
Type: ADME, organism-based
Settings: whole blood, read-out: Drug uptake
PARAMETER_MEASURED: concentration at 5 h
Give the value; after it, write the unit.

Challenge: Indicate its recorded concentration at 5 h; the compound in question is `C=CC(=O)N1CC(Oc2c(N)ncnc2-c2cc(F)cc(NC(=O)c3ccc(C4CC4)cc3)c2C)C1`
Response given: 13 nM

----------
Test: Lipophilicity, log P of the compound
Format: physicochemical
Conditions: octanol/water
PARAMETER_MEASURED: logP
Reply briefly: the number, and no unit.

C=CC(=O)N(C)CCOc1c(N)ncnc1-c1cc(F)cc(NC(=O)c2ccc(C3CC3)cc2F)c1C    2.9

Let's switch to this compound now.
Challenge: Supply recorded logP for `C=CC(=O)N(CC)CCOc1c(N)ncnc1-c1cc(F)cc(NC(=O)c2ccc(C3CC3)cc2F)c1C` here.
Response given: 3.6

----------
Assay: Volume of distribution at steady state in C57BL/6 mouse at 1 mg/kg, iv or 3 mg/kg, po
Assay type: ADME, organism-based
Conditions: in vivo, read-out: Vdss
PARAMETER_MEASURED: Vd
Entry format: amount then unit.

Challenge: State its Vd for this compound: `C=CC(=O)N(C)CCOc1c(N)ncnc1-c1cc(F)cc(NC(=O)c2ccc(C3CC3)cc2F)c1C`
Response given: 1 L/kg

----------
Test: Clearance in OFA-1 rat at 3 mg/kg, po
Type: ADME, organism-based
Details: in vivo
PARAMETER_MEASURED: CL/F (mL/min/kg)
Answer in mL/min/kg, number only, no unit symbol.

Challenge: Specify reported CL/F for the compound shown: `C=CC(=O)N(C)C/C=C/c1c(N)ncnc1-c1cc(F)cc(NC(=O)c2ccc(C3CC3)cc2F)c1C`
Response given: 307

----------
Assay: Half life in C57BL/6 mouse at 1 mg/kg, iv or 3 mg/kg, po
Format: ADME, organism-based
Details: in vivo
PARAMETER_MEASURED: half-life (h)
Please state the figure in h; there is no need to write the unit.

Challenge: Identify measured half-life associated with `C=CC(=O)N(C)CCOc1c(N)ncnc1-c1cc(F)cc(NC(=O)c2ccc(C3CC3)cc2F)c1C`
Response given: 1

----------
Test: Half life in Beagle dog at 1 mg/kg, iv or 3 mg/kg, po
Assay type: ADME, organism-based, Canis lupus familiaris
Conditions: in vivo
PARAMETER_MEASURED: half-life (min)
Kindly answer with a numeric value in min, unit omitted.

Challenge: Supply half-life value. Item: `C=CC(=O)N(C)CCOc1c(N)ncnc1-c1cc(F)cc(NC(=O)c2ccc(C3CC3)cc2F)c1C`
Response given: 54

----------
# Lookup of reported half-life keyed by entry
Experiment: Half life in human plasma
Type: ADME, cell-free

For orientation, consider the following solved cases.
C=CC(=O)N1CC(Oc2c(N)ncnc2-c2cc(F)cc(NC(=O)c3ccc(C4CC4)cc3F)c2C)C1    0.583 h
C=CC(=O)N(CC)CCOc1c(N)ncnc1-c1cc(F)cc(NC(=O)c2ccc(C3CC3)cc2F)c1C    > 2 h
C#CC(=O)N(C)CCOc1c(N)ncnc1-c1cc(F)cc(NC(=O)c2ccc(C3CC3)cc2F)c1C    1.6 h
C=CC(=O)NCCOc1c(N)ncnc1-c1cc(F)cc(NC(=O)c2ccc(C3CC3)cc2F)c1C    > 2 h
C=CC(=O)N(C)CCOc1c(N)ncnc1-c1cc(F)cc(NC(=O)c2ccc(C3CC3)cc2F)c1C [REMIBRUTINIB]    > 2 h
C=CC(=O)N1CC[C@H]1COc1c(N)ncnc1-c1cc(F)cc(NC(=O)c2ccc(C3CC3)cc2F)c1C    0.7 h
C=CC(=O)N1CCC[C@H]1COc1c(N)ncnc1-c1cc(F)cc(NC(=O)c2ccc(C3CC3)cc2F)c1C    > 2 h
C=CC(=O)N1CCC(Oc2c(N)ncnc2-c2cc(F)cc(NC(=O)c3ccc(C4CC4)cc3F)c2C)CC1    > 2 h

Challenge: Please report the measured half-life for `C=CC(=O)N(C)C/C=C/c1c(N)ncnc1-c1cc(F)cc(NC(=O)c2ccc(C3CC3)cc2F)c1C`
Response given: > 2 h

----------
Assay: Intrinsic clearance in rat liver microsomes
Type: ADME, Microsome
Settings: read-out: CLH
PARAMETER_MEASURED: log10 of microsomal CLint (log10 of the value in µL/min/mg)
Record value = log10 of microsomal CLint given in µL/min/mg.

Some entries whose results are on file:
C=CC(=O)N(C)C/C=C/c1c(N)ncnc1-c1cc(F)cc(NC(=O)c2ccc(C3CC3)cc2)c1C    2.97
C=CC(=O)N1CC(Oc2c(N)ncnc2-c2cc(F)cc(NC(=O)c3ccc(C4CC4)cc3)c2C)C1    1.40
C=CC(=O)N1CCC(Oc2c(N)ncnc2-c2cc(F)cc(NC(=O)c3ccc(C4CC4)cc3)c2C)C1 (stereo not given)    2.13
C=CC(=O)N(C)CC/C=C/c1c(N)ncnc1-c1cc(F)cc(NC(=O)c2ccc(C3CC3)cc2)c1C    2.91

Query molecule follows.
Challenge: Consider the molecule `C=CC(=O)N(C)CCOc1c(N)ncnc1-c1cc(F)cc(NC(=O)c2ccc(C3CC3)cc2F)c1C` . State its measured log10 of microsomal CLint.
Response given: 1.52

----------
Assay: Thermodynamic solubility of the compound at pH 6.8
Assay type: physicochemical
Settings: buffer, read-out: Therm_solubility
PARAMETER_MEASURED: solubility thermodynamic

Challenge: Tell me its solubility thermodynamic given C=CC(=O)N(C)CCOc1c(N)ncnc1-c1cc(F)cc(NC(=O)c2ccc(C3CC3)cc2F)c1C [REMIBRUTINIB] as the entry.
Response given: < 3 µg/mL

----------
Experiment: Stability of the compound in GSH assessed as parent compound remaining measured after 24 hrs
Assay type: physicochemical
Conditions: GSH (glutathione); read-out: Stability
Measured remaining at 24 h accompanies every entry in the list below.
The reply must contain the numeric value and, after it, the unit.

Worked examples follow.
C/C=C/C(=O)N(C)CCOc1c(N)ncnc1-c1cc(F)cc(NC(=O)c2ccc(C3CC3)cc2F)c1C    95.8%
C#CC(=O)N(C)CCOc1c(N)ncnc1-c1cc(F)cc(NC(=O)c2ccc(C3CC3)cc2F)c1C    0.1%
CC#CC(=O)N(C)CCOc1c(N)ncnc1-c1cc(F)cc(NC(=O)c2ccc(C3CC3)cc2F)c1C    79.6%
Cc1c(NC(=O)c2ccc(C3CC3)cc2F)cc(F)cc1-c1ncnc(N)c1OCCN(C)C(=O)/C=C/CN(C)C    60.8%

// next entry
Challenge: Return value of remaining at 24 h for input C=CC(=O)N(C)CCOc1c(N)ncnc1-c1cc(F)cc(NC(=O)c2ccc(C3CC3)cc2F)c1C [REMIBRUTINIB] , no commentary.
Response given: 68.5%
